Below: a set of entries, each annotated with reported inhibition at 0.1 µM.
target: PDGF-Ra (Homo sapiens, UniProt P16234); construct: host or cells: G-292 human osteosarcoma cells; assay: Inhibitory activity against PDGF-Ra phosphorylation by PDGF-AA stimulation using G292; format: cell-based; details: G292; figure in parentheses in >100( ); at 100 nM; read-out: PDGF (E) inhibition (%) at 100 nM
Sequence (P16234 24-1089): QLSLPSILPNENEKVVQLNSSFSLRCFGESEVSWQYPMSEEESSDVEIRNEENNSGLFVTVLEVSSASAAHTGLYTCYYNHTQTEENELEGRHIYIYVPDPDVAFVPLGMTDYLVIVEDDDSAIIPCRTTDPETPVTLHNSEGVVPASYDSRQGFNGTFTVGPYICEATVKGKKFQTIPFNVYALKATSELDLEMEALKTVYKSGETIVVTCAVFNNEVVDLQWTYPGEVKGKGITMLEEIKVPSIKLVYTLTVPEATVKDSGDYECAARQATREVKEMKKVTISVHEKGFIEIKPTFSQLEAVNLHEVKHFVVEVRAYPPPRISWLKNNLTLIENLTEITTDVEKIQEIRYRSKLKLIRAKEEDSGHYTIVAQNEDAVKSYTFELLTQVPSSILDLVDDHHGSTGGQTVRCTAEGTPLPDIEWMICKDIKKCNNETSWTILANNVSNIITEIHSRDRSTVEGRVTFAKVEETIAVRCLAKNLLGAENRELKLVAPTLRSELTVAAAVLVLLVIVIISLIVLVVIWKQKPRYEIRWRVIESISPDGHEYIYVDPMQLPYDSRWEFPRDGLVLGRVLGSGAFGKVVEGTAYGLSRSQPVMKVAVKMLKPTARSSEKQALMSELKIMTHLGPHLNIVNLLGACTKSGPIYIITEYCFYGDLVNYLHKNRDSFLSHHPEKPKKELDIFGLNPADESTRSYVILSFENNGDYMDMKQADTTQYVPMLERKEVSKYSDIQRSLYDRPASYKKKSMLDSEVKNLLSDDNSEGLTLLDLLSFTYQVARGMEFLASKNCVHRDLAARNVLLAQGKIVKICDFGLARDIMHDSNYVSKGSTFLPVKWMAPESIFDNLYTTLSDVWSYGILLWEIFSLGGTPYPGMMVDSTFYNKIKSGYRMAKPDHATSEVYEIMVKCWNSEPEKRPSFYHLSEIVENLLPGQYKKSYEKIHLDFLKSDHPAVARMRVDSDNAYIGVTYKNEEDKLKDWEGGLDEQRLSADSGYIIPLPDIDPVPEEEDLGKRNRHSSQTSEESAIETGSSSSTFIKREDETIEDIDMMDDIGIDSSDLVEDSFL
Express your answer in %, writing the number without its unit.

1) COc1cc2nccc(Oc3ccc(NC(=S)NC(=O)c4cc(C)cc(C)c4)cc3)c2cc1OC: 48

**Q:** If you can, please state the reported inhibition at 0.1 µM value of `COc1cc2nccc(Oc3ccc(NC(=S)NC(=O)c4ccc(-c5ccccc5)cc4)c(F)c3)c2cc1OC` .
**A:** 22

**Q:** Field entry: `COc1cc2nccc(Oc3cc(C)c(NCCCOc4ccccc4)cc3C)c2cc1OC`
**A:** 47

**Q:** Try the molecule COc1cc2nccc(Oc3cc(C)c(NC(=O)OC(C)c4ccc(C)cc4)cc3C)c2cc1OC (stereo not shown)
**A:** 49

----------
Biological target: c-kit (Homo sapiens, UniProt P10721)
Construct: MO7e (human megakaryocytic leukemia cell line) which had been arrested for 20 hr; endogenous in cells; host or cells: MO7e human megakaryocytic leukemia cell line
Sequence (P10721 26-976): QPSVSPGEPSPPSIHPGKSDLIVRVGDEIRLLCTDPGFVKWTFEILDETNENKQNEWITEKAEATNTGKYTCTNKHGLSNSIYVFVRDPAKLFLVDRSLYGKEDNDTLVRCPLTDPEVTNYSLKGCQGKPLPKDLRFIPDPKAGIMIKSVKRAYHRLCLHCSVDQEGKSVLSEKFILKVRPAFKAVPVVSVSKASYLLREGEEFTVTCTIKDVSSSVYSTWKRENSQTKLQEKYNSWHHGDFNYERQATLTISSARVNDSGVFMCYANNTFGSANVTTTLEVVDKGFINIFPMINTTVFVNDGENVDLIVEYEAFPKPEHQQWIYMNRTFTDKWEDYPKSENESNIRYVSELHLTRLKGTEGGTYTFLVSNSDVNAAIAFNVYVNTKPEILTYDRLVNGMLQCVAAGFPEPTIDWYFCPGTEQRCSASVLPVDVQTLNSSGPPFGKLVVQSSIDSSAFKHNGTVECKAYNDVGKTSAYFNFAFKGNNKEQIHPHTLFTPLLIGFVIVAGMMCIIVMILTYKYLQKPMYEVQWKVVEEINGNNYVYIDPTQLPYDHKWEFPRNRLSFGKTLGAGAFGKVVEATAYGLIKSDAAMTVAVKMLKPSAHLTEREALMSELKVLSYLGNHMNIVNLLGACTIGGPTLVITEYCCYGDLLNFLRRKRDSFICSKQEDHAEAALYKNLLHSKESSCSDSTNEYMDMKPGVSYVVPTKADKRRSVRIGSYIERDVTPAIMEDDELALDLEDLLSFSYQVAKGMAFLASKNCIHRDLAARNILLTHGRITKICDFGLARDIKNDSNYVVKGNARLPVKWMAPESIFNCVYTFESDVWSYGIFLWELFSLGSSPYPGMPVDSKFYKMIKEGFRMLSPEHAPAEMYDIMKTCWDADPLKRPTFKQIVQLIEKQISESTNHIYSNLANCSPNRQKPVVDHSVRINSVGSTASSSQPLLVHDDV
Assay: Inhibitory activity against c-kit autophosphorylation (MO7e cells, h-SCF)
Type: cell-based
Details: MO7e cells, h-SCF 50 ng/ml; read-out: c-kit IC50
Procedure: Inhibitory Activity Against c-kit Autophosphorylation MO7e (human megakaryocytic leukemia cell line) which had been arrested for 20 hr was seeded into 96 well plates at an amount of 2×10^5 per well. A solution of a test compound in DMSO was added, and a reaction was then allowed to proceed for one hr. Thereafter, the cells were stimulated by 50 ng/ml of h-SCF for 5 min, followed by replacement with lysate buffer to solubilize the cells. […]
Recorded IC50, one value per entry.
Please respond with the number in nM and leave the unit unwritten.

Past entries and their recorded results:
1. COc1cc2nccc(Oc3cc(C)c(NC(=O)OCCCSc4ccc(C)cc4)cc3C)c2cc1OC [Example 39]: 56
2. COc1cc2nccc(Oc3ccc(NC(=O)OC(C)c4ccc(C)cc4)cc3)c2cc1OC (stereo not shown) [Example 132]: 301

**Q:** I'd like to know its IC50. The molecule in question is COc1cc2ncnc(Oc3ccc(NC(=O)OCCCOc4ccccc4Cl)c(C)c3C)c2cc1OC [Example 211]
**A:** 43

**Q:** Can you handle COc1cc2nccc(Oc3ccc(NC(=O)OC(C)C)c(C)c3C)c2cc1OC [Example 325] next?
**A:** 46

----------
biological target: c-kit (Homo sapiens, UniProt P10721); construct: MO7e (human megakaryocytic leukemia cell line) which had been arrested for 20 hr; endogenous in cells; host or cells: MO7e human megakaryocytic leukemia cell line; assay: Inhibitory activity against c-kit autophosphorylation (MO7e cells, h-SCF); assay type: cell-based; settings: MO7e cells, h-SCF 50 ng/ml; read-out: c-kit IC50
Recorded IC50 values for a group of molecules are listed next.
Express it in nM; write the number only.

Field: example entries. Status: answers known.
1) COc1cc2nccc(Oc3ccc(NC(=O)OC(C)c4ccccc4Br)cc3)c2cc1OC (stereo not shown) [Example 112]: 214
2) C=CCOC(=O)Nc1ccc(Oc2ncnc3cc(OC)c(OC)cc23)cc1 [Example 375]: 144
3) COc1ccc(OC)c(COC(=O)Nc2ccc(Oc3ccnc4cc(OC)c(OC)cc34)cc2)c1 [Example 67]: 342

Moving on to another molecule below.
**Q:** What IC50 value was documented for this molecule, COc1cc2nccc(Oc3cc(C)c(NC(=O)OCc4ccc(Cl)cc4)cc3C)c2cc1OC [Example 243] ?
**A:** 190
